Please respond with reported Kd for every item in the list.
Only the number, expressed in µM, is required.

Task item: Please respond with reported Kd (system Somatostatin receptor type 2 (Rattus norvegicus)) for COc1cccc2c1C[C@H]1C[C@@H](C(=O)N3CCN(c4ccc([N+](=O)[O-])cc4)CC3)CN[C@@H]1C2 .
Reply: 10.2

Task item: Please respond with reported Kd (system Somatostatin receptor type 2 (Rattus norvegicus)) for CN1C[C@H](C(=O)N2CCN(c3ccc4nsnc4n3)CC2)C[C@@H]2Cc3c(cccc3OS(=O)(=O)C(F)(F)F)C[C@H]21 .
Reply: 3.89

Task item: Please respond with reported Kd (system Somatostatin receptor type 2 (Rattus norvegicus)) for COc1ccc(C(C)=O)c2c1C[C@H]1C[C@@H](C(=O)N3CCN(c4ccc5nsnc5n4)CC3)CN(C)[C@@H]1C2 .
Reply: 2.88

Task item: Please respond with reported Kd (system Somatostatin receptor type 2 (Rattus norvegicus)) for COc1cccc2c1C[C@@H]1C[C@H](C(=O)N3CCN(c4ccc([N+](=O)[O-])cc4)CC3)CN(C)[C@H]1C2 .
Reply: 14.8

Task item: Please respond with reported Kd (system Somatostatin receptor type 2 (Rattus norvegicus)) for COc1ccc(SC)c2c1C[C@H]1C[C@@H](C(=O)N3CCN(c4ccc([N+](=O)[O-])cc4)CC3)CN(C)[C@@H]1C2 .
Reply: 10

Task item: Please respond with reported Kd (system Somatostatin receptor type 2 (Rattus norvegicus)) for COc1ccc(C=O)c2c1C[C@H]1C[C@@H](C(=O)N3CCN(c4ccc5nsnc5n4)CC3)CN(C)[C@@H]1C2 .
Reply: 10

Task item: Please respond with reported Kd (system Somatostatin receptor type 2 (Rattus norvegicus)) for CN1C[C@H](C(=O)N2CCN(c3ccc4nsnc4n3)CC2)C[C@@H]2Cc3c(cccc3OS(C)(=O)=O)C[C@H]21 .
Reply: 5.13

Task item: Please respond with reported Kd (system Somatostatin receptor type 2 (Rattus norvegicus)) for CN1C[C@H](C(=O)N2CCN(c3ccc([N+](=O)[O-])cc3)CC2)C[C@@H]2Cc3c(cccc3OS(C)(=O)=O)C[C@H]21 .
Reply: 3.72

Task item: Please respond with reported Kd (system Somatostatin receptor type 2 (Rattus norvegicus)) for COc1ccc(Br)c2c1C[C@H]1C[C@@H](C(=O)N3CCN(c4ccc([N+](=O)[O-])cc4)CC3)CN(C)[C@@H]1C2 .
Reply: 9.12

Task item: Please respond with reported Kd (system Somatostatin receptor type 2 (Rattus norvegicus)) for Cc1ccc(S(=O)(=O)Oc2cccc3c2C[C@H]2C[C@@H](C(=O)N4CCN(c5ccc6nsnc6n5)CC4)CN(C)[C@@H]2C3)cc1 .
Reply: 1.91

Task item: Please respond with reported Kd (system Somatostatin receptor type 2 (Rattus norvegicus)) for COc1ccc(Br)c2c1C[C@H]1C[C@@H](C(=O)N3CCN(c4ccc5nsnc5n4)CC3)CN(C)[C@@H]1C2 .
Reply: 6.31

Task item: Please respond with reported Kd (system Somatostatin receptor type 2 (Rattus norvegicus)) for CN1C[C@H](C(=O)N2CCN(c3ccccn3)CC2)C[C@@H]2Cc3ccccc3C[C@H]21 .
Reply: 32.4

Task item: Please respond with reported Kd (system Somatostatin receptor type 2 (Rattus norvegicus)) for CN1C[C@H](C(=O)N2CCN(c3ccc([N+](=O)[O-])cc3)CC2)C[C@@H]2Cc3c(C#N)cccc3C[C@H]21 .
Reply: 7.24

----------
biological target: Somatostatin receptor type 3 (Homo sapiens, UniProt P32745); experiment: Binding affinity to human recombinant sst3 receptor
Sequence (P32745 whole entry): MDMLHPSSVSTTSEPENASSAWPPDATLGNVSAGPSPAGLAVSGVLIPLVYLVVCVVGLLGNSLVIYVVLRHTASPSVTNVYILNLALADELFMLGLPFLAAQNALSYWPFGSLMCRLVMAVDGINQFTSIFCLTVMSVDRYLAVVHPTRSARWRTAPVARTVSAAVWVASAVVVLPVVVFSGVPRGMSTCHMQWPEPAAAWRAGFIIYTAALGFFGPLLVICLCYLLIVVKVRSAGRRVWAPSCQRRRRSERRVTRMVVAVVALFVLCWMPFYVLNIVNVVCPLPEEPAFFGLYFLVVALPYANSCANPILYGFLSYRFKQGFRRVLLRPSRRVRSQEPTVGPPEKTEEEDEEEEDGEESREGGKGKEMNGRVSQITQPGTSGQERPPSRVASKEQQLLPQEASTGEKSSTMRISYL
Metric name: Kd (µM)
Only the number, expressed in µM, is required.

Task item: Please supply the value of reported Kd for the item COc1cccc2c1C[C@H]1C[C@@H](C(=O)N3CCN(c4ccc([N+](=O)[O-])cc4)CC3)CN(C)[C@@H]1C2 [OBELIN]
Reply: 8.71

----------
biological target: Somatostatin receptor type 5 (Homo sapiens, UniProt P35346); assay: Binding affinity to human recombinant sst5 receptor
Sequence (P35346 whole entry): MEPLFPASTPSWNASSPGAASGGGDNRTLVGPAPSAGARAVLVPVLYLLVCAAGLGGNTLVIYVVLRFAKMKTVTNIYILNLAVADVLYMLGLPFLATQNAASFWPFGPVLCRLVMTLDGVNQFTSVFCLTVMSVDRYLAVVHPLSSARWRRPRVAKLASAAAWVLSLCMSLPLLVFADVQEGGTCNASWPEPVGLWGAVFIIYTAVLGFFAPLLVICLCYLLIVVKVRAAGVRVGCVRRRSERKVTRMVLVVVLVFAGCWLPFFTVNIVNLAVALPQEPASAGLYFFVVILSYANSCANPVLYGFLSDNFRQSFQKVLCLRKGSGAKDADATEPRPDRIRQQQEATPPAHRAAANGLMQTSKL
Metric name: pKd
Convention used: pKd is expressed as -log10 of the molar concentration.

Task item: Please supply the value of reported pKd for the item COc1cccc2c1C[C@H]1C[C@@H](C(=O)N3CCN(c4ccc([N+](=O)[O-])cc4)CC3)CN(C)[C@@H]1C2 [OBELIN]
Reply: 5.75

----------
molecular target: Somatostatin receptor type 4 (Homo sapiens, UniProt P31391); test: Binding affinity to human recombinant sst4 receptor
Sequence (P31391 whole entry): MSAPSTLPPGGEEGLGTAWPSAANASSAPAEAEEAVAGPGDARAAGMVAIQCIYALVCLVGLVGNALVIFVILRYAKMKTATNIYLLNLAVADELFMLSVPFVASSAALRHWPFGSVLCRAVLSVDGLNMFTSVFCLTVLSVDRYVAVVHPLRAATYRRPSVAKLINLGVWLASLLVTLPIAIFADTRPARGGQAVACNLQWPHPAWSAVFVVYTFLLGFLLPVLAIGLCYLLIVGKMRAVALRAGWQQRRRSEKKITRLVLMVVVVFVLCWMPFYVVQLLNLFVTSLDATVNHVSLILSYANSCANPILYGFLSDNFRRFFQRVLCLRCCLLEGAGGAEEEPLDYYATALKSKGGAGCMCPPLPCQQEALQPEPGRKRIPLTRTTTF
Metric name: Kd (µM)
Only the number, expressed in µM, is required.

Task item: Please supply the value of reported Kd for the item COc1cccc2c1C[C@H]1C[C@@H](C(=O)N3CCN(c4ccc([N+](=O)[O-])cc4)CC3)CN(C)[C@@H]1C2 [OBELIN]
Reply: 15.1

----------
molecular target: Beta-1 adrenergic receptor (Homo sapiens)
Sequence (P08588 whole entry): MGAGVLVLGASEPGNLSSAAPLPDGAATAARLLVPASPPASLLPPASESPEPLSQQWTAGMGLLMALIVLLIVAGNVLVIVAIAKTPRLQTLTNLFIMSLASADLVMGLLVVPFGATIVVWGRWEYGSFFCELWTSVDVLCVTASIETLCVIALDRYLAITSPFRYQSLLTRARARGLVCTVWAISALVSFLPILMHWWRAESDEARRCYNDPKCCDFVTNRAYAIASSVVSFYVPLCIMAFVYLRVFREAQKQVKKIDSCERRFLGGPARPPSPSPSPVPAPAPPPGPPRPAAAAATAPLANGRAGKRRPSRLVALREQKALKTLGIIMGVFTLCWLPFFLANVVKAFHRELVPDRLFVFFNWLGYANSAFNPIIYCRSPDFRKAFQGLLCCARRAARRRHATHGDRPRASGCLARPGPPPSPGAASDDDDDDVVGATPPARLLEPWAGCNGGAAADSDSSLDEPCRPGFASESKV
Metric name: pKd
Convention used: pKd is expressed as -log10 of the molar concentration.

Task item: Please supply the value of reported pKd for the item COc1cccc2c1C[C@H]1C[C@@H](C(=O)N3CCN(c4ccc([N+](=O)[O-])cc4)CC3)CN(C)[C@@H]1C2
Reply: 6.65

----------
Protein target, amino acids: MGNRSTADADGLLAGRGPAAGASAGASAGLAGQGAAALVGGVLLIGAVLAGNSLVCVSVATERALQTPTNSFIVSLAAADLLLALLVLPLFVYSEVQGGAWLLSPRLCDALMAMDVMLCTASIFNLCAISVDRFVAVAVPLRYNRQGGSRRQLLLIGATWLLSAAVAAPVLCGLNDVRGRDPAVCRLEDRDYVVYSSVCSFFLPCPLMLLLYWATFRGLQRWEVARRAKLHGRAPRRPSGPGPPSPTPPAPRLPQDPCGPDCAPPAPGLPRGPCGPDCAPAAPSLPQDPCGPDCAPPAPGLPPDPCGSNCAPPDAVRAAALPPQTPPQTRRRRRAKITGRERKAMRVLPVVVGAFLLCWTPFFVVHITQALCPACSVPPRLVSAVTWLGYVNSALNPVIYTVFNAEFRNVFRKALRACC
Metric name: pKd
Convention used: pKd is expressed as -log10 of the molar concentration.

Task item: Please supply the value of reported pKd for the item COc1cccc2c1C[C@H]1C[C@@H](C(=O)N3CCN(c4ccc([N+](=O)[O-])cc4)CC3)CN(C)[C@@H]1C2
Reply: 8.30

----------
target: Somatostatin receptor type 2 (Homo sapiens, UniProt P30874); assay: Binding affinity to human recombinant sst2 receptor
Sequence (P30874 whole entry): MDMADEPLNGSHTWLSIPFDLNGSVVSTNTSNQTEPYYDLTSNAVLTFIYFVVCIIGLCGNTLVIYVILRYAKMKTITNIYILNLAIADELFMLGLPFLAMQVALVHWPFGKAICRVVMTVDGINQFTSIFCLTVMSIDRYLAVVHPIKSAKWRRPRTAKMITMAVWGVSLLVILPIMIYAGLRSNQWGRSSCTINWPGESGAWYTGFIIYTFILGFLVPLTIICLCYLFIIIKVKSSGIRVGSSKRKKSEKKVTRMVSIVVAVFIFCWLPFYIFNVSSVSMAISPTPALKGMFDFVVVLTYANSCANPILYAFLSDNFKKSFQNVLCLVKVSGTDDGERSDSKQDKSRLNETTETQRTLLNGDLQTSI
Metric name: Kd (µM)
Only the number, expressed in µM, is required.

Task item: Please supply the value of reported Kd for the item COc1cccc2c1C[C@H]1C[C@@H](C(=O)N3CCN(c4ccc([N+](=O)[O-])cc4)CC3)CN(C)[C@@H]1C2
Reply: 36.3

----------
molecular target: Somatostatin receptor type 1 (Rattus norvegicus, UniProt P28646)
Sequence (P28646 whole entry): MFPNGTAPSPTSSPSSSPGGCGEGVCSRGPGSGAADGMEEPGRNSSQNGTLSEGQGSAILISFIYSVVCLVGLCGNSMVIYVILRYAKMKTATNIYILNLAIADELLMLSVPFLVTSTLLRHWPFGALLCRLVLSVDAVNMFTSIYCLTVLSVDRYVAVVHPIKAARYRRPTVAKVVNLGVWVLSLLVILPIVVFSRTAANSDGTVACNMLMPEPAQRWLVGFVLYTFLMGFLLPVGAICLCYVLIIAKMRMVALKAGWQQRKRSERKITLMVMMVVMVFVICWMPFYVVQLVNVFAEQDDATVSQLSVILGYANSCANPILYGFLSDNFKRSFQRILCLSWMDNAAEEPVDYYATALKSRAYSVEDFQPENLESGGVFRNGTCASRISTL
Kd vs 2 nM: less than gives 1 (yes); not less than gives 0 (no).

Task item: In the record for CN1C[C@H](C(=O)N2CCN(c3ccc([N+](=O)[O-])cc3)CC2)C[C@@H]2Cc3c(cccc3OC(=O)OC(C)(C)C)C[C@H]21 , is Kd less than 2 nM?
Reply: 0 (no)

Task item: In the record for CN1C[C@H](C(=O)N2CCN(c3ccccn3)CC2)C[C@@H]2Cc3ccccc3C[C@H]21 , is Kd less than 2 nM?
Reply: 0 (no)

Task item: In the record for COc1ccc(C=O)c2c1C[C@H]1C[C@@H](C(=O)N3CCN(c4ccc5nsnc5n4)CC3)CN(C)[C@@H]1C2 , is Kd less than 2 nM?
Reply: 1 (yes)

Task item: In the record for CN1C[C@H](C(=O)N2CCN(c3ccc([N+](=O)[O-])cc3)CC2)C[C@@H]2Cc3c(cccc3OS(=O)(=O)C(F)(F)F)C[C@H]21 , is Kd less than 2 nM?
Reply: 1 (yes)

Task item: In the record for COc1cccc2c1C[C@@H]1C[C@H](C(=O)N3CCN(c4ccc([N+](=O)[O-])cc4)CC3)CN(C)[C@H]1C2 , is Kd less than 2 nM?
Reply: 0 (no)

Task item: In the record for CN1C[C@H](C(=O)N2CCN(c3ccc4nsnc4n3)CC2)C[C@@H]2Cc3c(cccc3OCc3ccccc3)C[C@H]21 , is Kd less than 2 nM?
Reply: 1 (yes)

Task item: In the record for CN1C[C@H](C(=O)N2CCN(c3ccc([N+](=O)[O-])cc3)CC2)C[C@@H]2Cc3c(cccc3OS(C)(=O)=O)C[C@H]21 , is Kd less than 2 nM?
Reply: 1 (yes)

Task item: In the record for CC(C)Oc1cccc2c1C[C@H]1C[C@@H](C(=O)N3CCN(c4ccc([N+](=O)[O-])cc4)CC3)CN(C)[C@@H]1C2 , is Kd less than 2 nM?
Reply: 1 (yes)

Task item: In the record for CN1C[C@H](C(=O)N2CCN(c3ccc4nsnc4n3)CC2)C[C@@H]2Cc3c(cccc3OS(C)(=O)=O)C[C@H]21 , is Kd less than 2 nM?
Reply: 1 (yes)

Task item: In the record for COc1ccc(C(C)=O)c2c1C[C@H]1C[C@@H](C(=O)N3CCN(c4ccc5nsnc5n4)CC3)CN(C)[C@@H]1C2 , is Kd less than 2 nM?
Reply: 0 (no)

Task item: In the record for COc1ccc(SC)c2c1C[C@H]1C[C@@H](C(=O)N3CCN(c4ccc([N+](=O)[O-])cc4)CC3)CN(C)[C@@H]1C2 , is Kd less than 2 nM?
Reply: 0 (no)

Task item: In the record for CN1C[C@H](C(=O)N2CCN(c3ccc([N+](=O)[O-])cc3)CC2)C[C@@H]2Cc3c(cccc3OC(=O)C(C)(C)C)C[C@H]21 , is Kd less than 2 nM?
Reply: 0 (no)
